# Growth Rate per record follows
# Test system: Fibroblast
# assayExplanation: Incucyte cell viability with human fibroblast; note: unitless GR value; below 1 slowed growth and below 0 cell loss
# Format: toxicity, cell-based
# reportedConditions: 18 h, 10 µM, compound concentration 10 uM, replicate number 1

{"compound": "COc1ccc(-n2c(C)c([N+](=O)[O-])c3ccc(O)cc32)cc1", "targetSystem": "Fibroblast", "Growth Rate": -0.35}
{"compound": "COc1ccc(OC(=O)N(CC(=O)O)Cc2ccc(OCCc3nc(-c4ccccc4)oc3C)cc2)cc1", "targetSystem": "Fibroblast", "Growth Rate": 0.79}
{"compound": "c1ccc2nc(N3CCNCC3)ccc2c1", "targetSystem": "Fibroblast", "Growth Rate": 0.52}
{"compound": "CN[C@@H]1CC[C@@H](c2ccc(Cl)c(Cl)c2)c2ccccc21.Cl", "targetSystem": "Fibroblast", "Growth Rate": -0.26}
{"compound": "Cc1c[nH]c(-c2cnc(NCCNc3ccc(C#N)cn3)nc2-c2ccc(Cl)cc2Cl)n1", "targetSystem": "Fibroblast", "Growth Rate": -0.4}
{"compound": "C=CC(=O)Nc1cccc(C)c1Nc1ncc2cc(-c3c(Cl)c(OC)cc(OC)c3Cl)ccc2n1", "targetSystem": "Fibroblast", "Growth Rate": 0.03}
{"compound": "CCN(CC)C/C=C/C(=O)Nc1cc2c(Nc3ccc(F)c(Cl)c3)ncnc2cc1OCC1CC1", "targetSystem": "Fibroblast", "Growth Rate": -0.12}
{"compound": "Cc1c(-c2c(F)cc(C(N)=O)c3[nH]c4c(c23)CC[C@H](C(C)(C)O)C4)cccc1-n1c(=O)c2cccc(F)c2n(C)c1=O", "targetSystem": "Fibroblast", "Growth Rate": 0.54}
{"compound": "CC(C)[C@H](CO)Nc1nc(Nc2ccc(C(=O)O)c(Cl)c2)c2ncn(C(C)C)c2n1", "targetSystem": "Fibroblast", "Growth Rate": 0.88}
{"compound": "CCC(=N\\O)/C(C)=C/c1ccc(F)cc1", "targetSystem": "Fibroblast", "Growth Rate": 0.86}
{"compound": "Cc1nc2cccnc2n2c(-c3cc(C(C)(C)O)ncc3Cl)nnc12", "targetSystem": "Fibroblast", "Growth Rate": 0.63}
{"compound": "Oc1cc2c(cc1O)CN(C(=S)NCCc1ccc(Cl)cc1)CCC2 [CAPSAZEPINE]", "targetSystem": "Fibroblast", "Growth Rate": -0.47}
{"compound": "CSc1nc2c(c(=O)n(C)c(=O)n2C)n1C", "targetSystem": "Fibroblast", "Growth Rate": 0.87}
{"compound": "CCC(=O)Nc1cc(Nc2cc(NC3CC3)n3ncc(C#N)c3n2)ccc1C", "targetSystem": "Fibroblast", "Growth Rate": 0.33}
{"compound": "CC(C)(C)c1cc(C(C)(C)C)c(NC(=O)c2c[nH]c3ccccc3c2=O)cc1O", "targetSystem": "Fibroblast", "Growth Rate": 0.28}
{"compound": "COc1c(OCCCN2CCOCC2)ccc2c1N=C(NC(=O)c1cnc(N)nc1)N1CCN=C21", "targetSystem": "Fibroblast", "Growth Rate": 0.26}
{"compound": "COc1ccccc1-n1nc(C2CC(C)(C)OC(C)(C)C2)cc1-c1ccc(Cl)cc1", "targetSystem": "Fibroblast", "Growth Rate": -0.27}
{"compound": "O=C(Nc1ccc(C(O)(C(F)(F)F)C(F)(F)F)cc1)c1ccc(C(F)(F)F)cc1", "targetSystem": "Fibroblast", "Growth Rate": 0.52}
{"compound": "O=C(NCc1cccnc1OCC(F)(F)F)c1cncc(-c2ccc(Cl)cc2)c1", "targetSystem": "Fibroblast", "Growth Rate": -0.38}
{"compound": "Cc1cccc(F)c1C(=O)Nc1cnc(-c2cc3c(cc2Cl)OC(F)(F)O3)cn1", "targetSystem": "Fibroblast", "Growth Rate": 0.77}
{"compound": "Cn1c(Nc2c(Cl)cccc2Cl)nc2ccc3nc[nH]c(=O)c3c21", "targetSystem": "Fibroblast", "Growth Rate": 0.71}
{"compound": "O=C(O)C(F)(F)F.O=C1NC(=O)/C(=C/c2c[nH]c(=O)c(-c3ccc(N4CCNCC4)nc3)c2)S1", "targetSystem": "Fibroblast", "Growth Rate": -0.06}
{"compound": "C=C1/C(=C\\C=C2/CCC[C@]3(C)[C@@H]([C@H](C)CCCC(C)(C)O)CC[C@@H]23)C[C@@H](O)C[C@@H]1O", "targetSystem": "Fibroblast", "Growth Rate": 0.64}
{"compound": "CN(C)C(=O)Cn1cc(-c2nc([C@@](C)(c3ccc(-c4cnc(N)nc4)cc3)C3CC3)no2)cn1", "targetSystem": "Fibroblast", "Growth Rate": 0.71}
{"compound": "CC1CNCCc2c1nc1ccnn1c2N1CC(C(=O)N2CCC(C)(C)C2)C1 (stereo unspecified)", "targetSystem": "Fibroblast", "Growth Rate": 0.7}
{"compound": "CN(C)C/C=C/C(=O)Nc1cc2c(Nc3ccc(F)c(Cl)c3)ncnc2cc1OC[C@@H]1CCCO1", "targetSystem": "Fibroblast", "Growth Rate": -0.32}
{"compound": "Cc1ccc(NC(=O)c2ccc(CN3CC[C@H](N(C)C)C3)c(C(F)(F)F)c2)cc1Nc1nccc(-c2cncnc2)n1", "targetSystem": "Fibroblast", "Growth Rate": 0.01}
{"compound": "CC(=O)Nc1nc(CN2CCC[C@H](Cc3cc(C)nc(C)c3)C2)cs1", "targetSystem": "Fibroblast", "Growth Rate": 0.87}
{"compound": "COc1cc(Nc2ccc([N+](=O)[O-])cc2C(=O)O)cc2ccccc12", "targetSystem": "Fibroblast", "Growth Rate": -0.31}
{"compound": "CS(=O)(=O)NC(=O)CCC/C=C\\C[C@H]1C(=O)C[C@@H](O)[C@@H]1/C=C/[C@@H](O)COc1ccccc1", "targetSystem": "Fibroblast", "Growth Rate": 0.95}
{"compound": "COc1cc(-c2cc(-c3cccc(O)c3)cnc2N)cc(OC)c1OC", "targetSystem": "Fibroblast", "Growth Rate": 0.59}
{"compound": "COc1ccccc1S(=O)(=O)Nc1ccc2c(c1)CN(C)C(=O)N2", "targetSystem": "Fibroblast", "Growth Rate": 0.37}
{"compound": "Cc1nsc(Nc2cnc(C(F)(F)F)cn2)c1C(=O)Nc1ccc(O[C@H]2CCCN(CC(F)(F)F)C2)nc1", "targetSystem": "Fibroblast", "Growth Rate": -0.36}
{"compound": "Cn1cc(NC(=O)c2ccc3nc4n(c3c2)CCCNC4=O)nc1C(=O)NC1CCCC1", "targetSystem": "Fibroblast", "Growth Rate": 0.91}
{"compound": "O=C(O)CCC/C=C\\C[C@@H]1[C@@H](/C=C/[C@@H](O)COc2cccc(C(F)(F)F)c2)[C@H](O)C[C@@H]1O", "targetSystem": "Fibroblast", "Growth Rate": 0.89}
{"compound": "O=c1cc(-c2cc(F)c(Cl)nc2Cl)[nH]c2c(-c3ccccc3)c(C(F)(F)F)nn12", "targetSystem": "Fibroblast", "Growth Rate": 0.57}
